Catalogue of self-cleavage kobs at 2500 uM GlcN6P readings, one per entry.
B1: glmS ribozyme (parent)
chain: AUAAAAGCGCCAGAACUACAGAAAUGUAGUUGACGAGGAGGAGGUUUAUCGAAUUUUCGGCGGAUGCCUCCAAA

# Variants of: B1
# experiment: self-cleavage kobs at 2500 uM GlcN6P; higher = faster cleavage; RNA array
# run parameters: with glucosamine-6-phosphate
This sample holds only a part of the variants without activity.

Below, 4 variants whose answers are already recorded.
{"mutation spec": "G26U A36C", "reported metric": "self-cleavage kobs at 2500 uM GlcN6P", "recorded value": "< 1e-05 s⁻¹"}
{"mutation spec": "A42U U55A G60A C71G", "reported metric": "self-cleavage kobs at 2500 uM GlcN6P", "recorded value": "< 1e-05 s⁻¹"}
{"mutation spec": "G41U A52C C71A", "reported metric": "self-cleavage kobs at 2500 uM GlcN6P", "recorded value": "< 1e-05 s⁻¹"}
{"mutation spec": "G9C C10U A36U A48U C71G", "reported metric": "self-cleavage kobs at 2500 uM GlcN6P", "recorded value": "< 1e-05 s⁻¹"}

Next, consider the following variant.
Prompt: Given the entry G7U U31C A36U A39C A42G G59U G66U , report its measured self-cleavage kobs at 2500 uM GlcN6P.
Response: < 1e-05 s⁻¹
